Cited source: patent US20210024640A1

Molecular target: T1, human OX40 (NP_003318) (human, UniProt P43489 29-214, limits assumed)
T1 construct: also called HuOX40; CD134
T1 sequence: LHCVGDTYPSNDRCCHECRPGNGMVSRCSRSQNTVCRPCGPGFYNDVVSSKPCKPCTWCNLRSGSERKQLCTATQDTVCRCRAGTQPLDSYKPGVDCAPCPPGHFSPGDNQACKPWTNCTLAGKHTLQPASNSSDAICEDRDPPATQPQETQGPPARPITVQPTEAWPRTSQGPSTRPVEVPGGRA
Assay: ELISA, binding to human OX40
property_measured: EC50 (nM)
# unit: nM | format: bare number

Field: example entries. Status: answers known.
humanized Ab REMD 277.1 (VH2-1/VL2-1) (antibody, human IgG1, kappa, V domains shown) VH: EVQLVQSGAEVKKPGESLKISCKGSGYTFTSYVMHWVRQMPGKGLEWMGYINPYNDGTKYNEKFKGQVTISADKSISTAYLQWSSLKASDTAMYYCARYYGSNYAMDYWGQGTMVTVSS VL: EIVLTQSPATLSLSPGERATLSCRASQDIRNYLNWYQQKPGQAPRLLIYYTSRLHSGIPARFSGSGSGTDFTLTISSLEPEDFAVYYCQQGNTLPWTFGQGTKVEIKR = 0.96
murine-human chimeric antibody derived from murine antibody A6 (chimeric IgG) (antibody, V domains shown, also called chimeric OX40 Ab) VH: EVQLQQSGPELVKPGASVKMSCKASGYTFTSYVMHWVKQKPGQGLEWIGYINPYNDGTKYNEKFKGKATLTSDKSSSTAYMELSSLTSEDSAVYYCANYYGSNYAMDYWGQGTSVTVSS VL: DIQMTQTTSSLSASLGDRVTISCRASQDIRNYLNWYQQKPDGTVKLLIYYTSRLHSGVPSRFSGSGSGTDYSLTISNLEQEDIATYFCQQGNTLPWTFGGGTKLEIKR = 0.028

We next turn to a different binder, shown below.
Short answer for humanized Ab REMD 277 (VH2-1/VL2-2) (antibody, human IgG1, kappa, V domains shown) VH: EVQLVQSGAEVKKPGESLKISCKGSGYTFTSYVMHWVRQMPGKGLEWMGYINPYNDGTKYNEKFKGQVTISADKSISTAYLQWSSLKASDTAMYYCARYYGSNYAMDYWGQGTMVTVSS VL: EIVMTQSPATLSASPGERVTLSCRASQDIRNYLNWYQQKPGGAVRLLIYYTSRLHSGVPARFSGSGSGTDYTLTISSLEPEDYAVYFCQQGNTLPWTFGQGTKVEIKR : EC50 was 0.6
